# target-or-system: S. aureus ATCC 29213 FabI (Staphylococcus aureus (strain MRSA252))
# assay: Staphylococcus aureus FabI enzyme inhibition assay
# Format: biochemical
# assay-context: 30 minutes at room temperature, pH 6.5
# Procedure: D.1 FabI Enzyme Inhibition: Staphylococcus aureus FabI Enzyme Inhibition Assay FabI enzyme inhibition assays were carried out in half-area, 384-well microtitre plates. Compounds were evaluated in 40-μl assay mixtures containing 100 mM NaADA, pH 6.5 (ADA=N-[2-acetamido]-2iminodiacetic acid), 250 μM crotonoyl-CoA, 625 μM NADH and 50 μg/ml S. aureus ATCC 29213 FabI Inhibitors were typically varied over the range of 50 to 0.39 μM. […]
metric-name: FabI IC50 (µg/mL)

* COc1ccncc1C1=CCN(C(=O)/C=C/c2cnc3c(c2)CCC(=O)N3)CC1 [compound 20] | 0.78
* O=C1CCc2cc(/C=C/C(=O)N3CCC(CC4CCCS4)CC3)cnc2N1 (stereo not shown) [compound 36] | 0.61
* COc1ccccc1CC1=CCN(C(=O)/C=C/c2cnc3c(c2)CCC(=O)N3)CC1 [compound 14] | 1.06
* O=C1CCc2cc(/C=C/C(=O)N3CCc4ccccc4C3)cnc2N1 [compound 3] | 0.48
* O=C1CCc2cc(/C=C/C(=O)N3CCC(Cn4cncn4)CC3)cnc2N1 [compound 40] | 1.43
* CC1CN(C(=O)/C=C/c2cnc3c(c2)CCC(=O)N3)CC=C1c1ccccc1 (stereo not shown) [compound 27] | 0.57
* O=C1CCc2cc(/C=C/C(=O)N3CC=C(c4ccco4)CC3)cnc2N1 [compound 9] | 0.34
